Test system: NCI-H2122 cells
Experiment: Anti proliferative activity in NCI-H2122 cells by XTT assay
Type: cell-based
Details: Homo sapiens, NCI-H2122, 192 h, H2122 cell line, 8 days (192 hour) incubation
pIC50: −log10 of the molar value.
reportedMetric: pIC50

stdin: Request body: readout pIC50, system NCI-H2122 cells, query CC(C#Cc1ccc(Cl)c(Cl)c1)NC(=O)N1CCN(C(=O)/C(C#N)=C/N(C)C)CC1 (centres unmarked) . Return the value.
stdout: < 4.60

stdin: Also check C=C(C)C(=O)N1CCN(C(=O)NC(C)C#Cc2ccc(Cl)c(Cl)c2)CC1 (racemic)
stdout: < 4.60

stdin: Also check C=CC(=O)N1CCN(C(=O)NC(C)C#Cc2ccc(Cl)c(C3(C)CC3)c2)CC1 (centres unmarked)
stdout: 4.60 to 5.00

stdin: Also check C=CC(=O)N1CCN(C(=O)NC(C)C#Cc2ccc(F)c(Cl)c2)CC1 (centres unmarked)
stdout: < 4.60

stdin: Also check C=CC(=O)N1CCN(C(=O)NC2(C#Cc3ccc(Cl)c(C4(C)CC4)c3)CC2)CC1
stdout: 4.60 to 5.00

stdin: Also check C=CC(=O)N[C@H]1CC[C@@H](NC(=O)NC(C)C#Cc2ccc(Cl)c(Cl)c2)CC1 (some centres unmarked)
stdout: < 4.60

stdin: Also check C=CC(=O)N1CCN(C(=O)NC2(C#Cc3ccc(Cl)c(Cl)c3)CC2)CC1
stdout: > 5.00
